What GALAP herbicidal rating was measured for each of the following?
- System: GALAP Galium
- METHOD DESCRIPTION: Preemergence herbicidal evaluation, GALAP
- Format: in vivo, Galium aparine
- Design: scale not given here
- PROTOCOL CONDITIONS: preemergence, rate 0.125 kg/ha
Just the number, please, no unit attached.

Request: So what does the record say about GALAP herbicidal rating for C=CCOc1ccc(-n2nnc3cc(F)c(-n4c(=O)cc(C(F)(F)F)n(C)c4=O)cc32)c(C)c1 ?
Result: 0.0

Request: Now try COC(=O)C(C)Oc1ccc(C)cc1-n1nnc2cc(F)c(-n3c(=O)cc(C(F)(F)F)n(C)c3=O)cc21 (stereo not shown) .
Result: 0.0

Request: Now try COc1ccc(-n2nnc3cc(F)c(-n4c(=O)cc(C(F)(F)F)n(C)c4=O)cc32)cc1 .
Result: 9.0

Request: Now try Cc1ccc(-n2nnc3cc(F)c(-n4c(=O)cc(C(F)(F)F)n(C)c4=O)cc32)cc1 .
Result: 9.0

Request: Now try COc1ccc(Cl)cc1-n1nnc2cc(F)c(-n3c(=O)cc(C(F)(F)F)n(C)c3=O)cc21 .
Result: 4.0

Request: Now try Cc1ccc(OCC(=O)O)cc1-n1nnc2cc(F)c(-n3c(=O)cc(C(F)(F)F)n(C)c3=O)cc21 .
Result: 0.0

Request: Now try C=CCOc1ccc(C)cc1-n1nnc2cc(F)c(-n3c(=O)cc(C(F)(F)F)n(C)c3=O)cc21 .
Result: 0.0
